All values here come from patent US20250034271A1.

- experimental-target: T1, Histidine-tagged human CD40 protein (hCD40-His) (human, UniProt P25942 21-193)
- T1 construct: not shown: histidine tag
- T1 sequence (P25942 21-193 limits assumed): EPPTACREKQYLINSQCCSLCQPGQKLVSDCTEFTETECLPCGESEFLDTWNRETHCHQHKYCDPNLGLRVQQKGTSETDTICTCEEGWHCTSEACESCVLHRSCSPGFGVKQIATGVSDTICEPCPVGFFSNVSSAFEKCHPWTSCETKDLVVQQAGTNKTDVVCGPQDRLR
- assay-notes: SPR, Biacore T200; antibody on Protein A chip, hCD40-His injected; 1:1 fit
observable: koff (s⁻¹)
Unit s⁻¹ implied. Number only.

[ask] // returns reported koff for input 4H6-H1K2-IgG4 (antibody, V domains shown, Humanized) VH: QVQLQESGPGLVKPSQTLSLTCTVSGDSVSSGYWNWIRKHPGKKLEWIGFISYSGSTYYTPSLKSRVTISRDTSKNQFSLKLSSVTAADTAVYYCARFRRYDDGVDYWGQGTLVTVSS VL: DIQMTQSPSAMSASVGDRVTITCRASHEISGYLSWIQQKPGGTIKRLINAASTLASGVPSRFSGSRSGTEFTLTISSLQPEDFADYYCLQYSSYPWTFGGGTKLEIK
[reply] 0.0632

[ask] // returns reported koff for input 4H6-H4K3-IgG4 (antibody, V domains shown, Humanized) VH: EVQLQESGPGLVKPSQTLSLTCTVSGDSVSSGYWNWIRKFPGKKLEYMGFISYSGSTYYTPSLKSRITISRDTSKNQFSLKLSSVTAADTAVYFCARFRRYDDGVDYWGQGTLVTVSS VL: DIQMTQSPSAMSASVGDRVTITCRASHEISGYLSWIQQKPGGTIKRLINAASTLASGVPSRFSGSRSGTEYTLTISSLQPEDFADYYCLQYSSYPWTFGGGTKLEIK
[reply] 0.0257

[ask] // returns reported koff for input 4H6-H1K3-IgG4 (antibody, V domains shown, Humanized) VH: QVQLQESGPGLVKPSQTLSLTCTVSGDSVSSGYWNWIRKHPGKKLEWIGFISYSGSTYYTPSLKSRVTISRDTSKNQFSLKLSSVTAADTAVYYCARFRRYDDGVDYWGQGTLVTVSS VL: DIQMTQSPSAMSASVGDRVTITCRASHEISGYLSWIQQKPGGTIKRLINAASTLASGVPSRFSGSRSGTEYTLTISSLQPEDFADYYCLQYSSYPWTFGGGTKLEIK
[reply] 0.0554
